# experiment-description: chemical genetic growth profiling, strain panel (AID 1159580);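 further: tested at 20 µM; growth read once vehicle control cultures reached saturation at 30 °C; 1 = growth at the plate median or of vehicle wells; lower values mean less growth of the strain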
# assay-conditions: S. cerevisiae deletion strains, growth OD, locus YLR262C, strain YPT6, active compounds read low
The campaign covered roughly 5,500 compounds. About 2,000 (36%) were called active. Not shown: some 18% with an inconclusive outcome. The list shows a part of the results.
property-measured: normalized growth

Answered examples (8):
| molecule | value-measured |
| --- | --- |
| C[C@H]1CC2C([C@@H](O)C[C@@]3(C)C2CC[C@]3(O)C(=O)CO)[C@@]2(C)C=CC(=O)C=C12 (stereo partly specified) | 0.996 (inactive) |
| CC(C(=O)O)c1cccc(C(=O)c2ccccc2)c1 (stereo unspecified) | 0.968 (inactive) |
| CO[C@H]1[C@H](O)[C@H](O[C@H]2CC[C@]3(C)C4CC[C@]5(C)C(C6=CC(=O)OC6)CC[C@]5(O)C4CC[C@@H]3C2)O[C@@H](C)[C@@H]1O (stereo partly specified) | 1.01 (inactive) |
| CC(C(=O)O)c1cccc(Oc2ccccc2)c1 (stereo unspecified) | 0.859 (inactive) |
| O=C(Oc1ccc(C(F)(F)F)cc1[N+](=O)[O-])c1c(F)cccc1F | 0.316 (active) |
| ClC1=C(Cl)C2(Cl)C3C(Cl)C=CC3C1(Cl)C2(Cl)Cl (stereo unspecified) | 1.01 (inactive) |
| COc1ccc(OC)c(C(O)C(C)N)c1 (stereo unspecified) | 1.08 (inactive) |
| C=Cc1c2[nH]c(c1C)C=c1[nH]c(c(C)c1C=C)=CC1N=C(C=c3[nH]c(c(C)c3CCC(=O)O)=C2)C(CCC(=O)O)=C1C (stereo unspecified) | 0.976 (inactive) |

Req: Look up normalized growth: CC(C(=O)O)c1ccc(-c2ccccc2)c(F)c1 (stereo unspecified)
Resp: 0.773 (inactive)

Req: Look up normalized growth: CSc1nnnn1-c1c(C)cccc1C
Resp: 0.936 (inactive)

Req: Look up normalized growth: O=C(CSc1nnnn1-c1ccccc1)NC1Cc2ccccc2C1
Resp: 1.07 (inactive)

Req: Look up normalized growth: CCN(CC)CCNC(=O)c1cc(Br)c(N)cc1OC
Resp: 0.958 (inactive)

Req: Look up normalized growth: CC1(C)OC(=O)NC1=O
Resp: 0.97 (inactive)

* * *

# experiment-description: chemical genetic growth profiling, strain panel (AID 1159580)
# assay-conditions: S. cerevisiae deletion strains, growth OD, locus YLR085C, strain ARP6
The whole screen tested about 5,500 compounds, of which about 2,000 (36%) were called active. About 18% were inconclusive and are not listed. Rule as the data show it: active = normalized growth mostly below about 0.91 (no sharp cut-off); inconclusive = no clear call, values can overlap the other calls; inactive = mostly above about 0.92. The list shows a part of the results.
Classes to choose from: 1 (yes) for active, 0 (no) for inactive

Req: Hi, do you know how CCCc1cc(=O)c2ccc(O)cc2o1 came out in this test?
Resp: 0 (no)

Req: Hi, do you know how COc1cc2c(cc1OC)CC(=O)OC2 came out in this test?
Resp: 0 (no)

Req: Hi, do you know how COc1cccc(OC)c1C(C)(O)C(OC)OC (centres undefined) came out in this test?
Resp: 0 (no)

Req: Hi, do you know how O=C(CSc1nnnn1-c1ccccc1)NC1Cc2ccccc2C1 came out in this test?
Resp: 0 (no)

Req: Hi, do you know how Cc1cccc(C)c1NC(=O)C(C)Oc1ccc(Cl)cc1Cl (centres undefined) came out in this test?
Resp: 0 (no)

Req: Hi, do you know how CSc1nnnn1-c1c(C)cccc1C came out in this test?
Resp: 0 (no)

* * *

Listed next: entries and their corresponding normalized growth.
# experiment-description: chemical genetic growth profiling, strain panel (AID 1159580)
# assay-conditions: S. cerevisiae deletion strains, growth OD, locus YLL001W, strain dnm1, active compounds read low
Out of some 5,500 compounds screened, about 2,000 (36%) were called active. Another 18% or so got no clear call; they are omitted. This is one part of the list.

Req: Look up normalized growth: COC1=CC(=O)C[C@@H](C)[C@]12Oc1c(Cl)c(OC)cc(OC)c1C2=O
Resp: 0.984 (inactive)

Req: Look up normalized growth: CCCCCCCCCCCCCCCC(=O)OC/C=C(C)/C=C/C=C(C)/C=C/C1=C(C)CCCC1(C)C
Resp: 1.01 (inactive)

Req: Look up normalized growth: ClC1=C(Cl)C2(Cl)C3C4C=CC(C4)C3C1(Cl)C2(Cl)Cl (stereo unspecified)
Resp: 0.998 (inactive)

Req: Look up normalized growth: COc1cc2c(cc1OC)[C@@H]1C(=O)c3ccc4oc(C(C)C)cc4c3O[C@@H]1CO2
Resp: 0.972 (inactive)

Req: Look up normalized growth: CC1=C(/C=C/C(C)=C/C=C/C(C)=C/C=C/C=C(C)/C=C/C=C(C)/C=C/C(=O)[C@]2(C)C[C@@H](O)CC2(C)C)C(C)(C)C[C@H](O)C1
Resp: 1 (inactive)

Req: Look up normalized growth: COc1ccc2c(c1)O[C@@H]1COc3cc(OC)c(OC)cc3[C@@H]1C2=O
Resp: 0.794 (active)

Req: Look up normalized growth: COP(=O)(OC)OC=C(Cl)Cl
Resp: 1.01 (inactive)

* * *

# experiment-description: chemical genetic growth profiling, strain panel (AID 1159580);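 further: tested at 20 µM; growth read once vehicle control cultures reached saturation at 30 °C; 1 = growth at the plate median or of vehicle wells; lower values mean less growth of the strain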
# assay-conditions: S. cerevisiae deletion strains, growth OD, locus YDL185W, strain tfp1, active compounds read low
Hit rate of the full screen: of about 5,500 compounds, about 2,000 (36%) were called active. Not shown: some 18% with an inconclusive outcome. Some of the results follow.
Listed next: entries and their corresponding normalized growth.
// return a plain number; no unit text

Answered examples (5):
| compound | value-measured |
| --- | --- |
| CC(=O)N[C@@H](CC(C)C)C(=O)O | 0.944 |
| Cc1cccc(C)c1OCC(C)N (stereo unspecified) | 0.95 |
| C=C1C2CC[C@H]3[C@]4(C)C[C@H](OC5OC(CO)C(OS(=O)(=O)O)C(OS(=O)(=O)O)C5OC(=O)CC(C)C)C[C@@H](C(=O)O)[C@H]4CC[C@]3(C2)[C@H]1O (stereo partly specified) | 0.986 |
| C[C@@H]1[C@H]2[C@H](O[C@@H]3O[C@H](CO)[C@@H](O)[C@H](O)[C@H]3O)OC=C(C(=O)O)[C@H]2C[C@@H]1O | 0.962 |
| CCOC(=O)CCC(=O)O[C@H]1[C@H](O[C@@H]2[C@@H](C)[C@H](O[C@H]3C[C@@](C)(OC)[C@@H](O)[C@H](C)O3)[C@@H](C)C(=O)O[C@H](CC)[C@@](C)(O)[C@H](O)[C@@H](C)C(=O)[C@H](C)C[C@@]2(C)O)O[C@H](C)C[C@@H]1N(C)C | 0.971 |

Req: Look up normalized growth: CC[C@H]1OC(=O)[C@H](C)[C@@H](O[C@H]2C[C@@](C)(OC)[C@@H](O)[C@H](C)O2)[C@H](C)[C@@H](O[C@@H]2O[C@H](C)C[C@H](N(C)C)[C@H]2O)[C@](C)(O)C[C@@H](C)CN(C)[C@H](C)[C@@H](O)[C@]1(C)O
Resp: 0.962

* * *

# experiment-description: chemical genetic growth profiling, strain panel (AID 1159580);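 further: tested at 20 µM; growth read once vehicle control cultures reached saturation at 30 °C; 1 = growth at the plate median or of vehicle wells; lower values mean less growth of the strain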
# assay-conditions: S. cerevisiae deletion strains, growth OD, locus YER167W, strain BCK2, active compounds read low
Among all 5,500 compounds or so, about 2,000 (36%) were called active. Roughly 18% stayed inconclusive and do not appear here. The list shows a part of the results.
property-measured: normalized growth
// return a plain number; no unit text

Answered examples (5):
| compound | normalized growth |
| --- | --- |
| CC(C(=O)O)c1cccc(C(=O)c2ccccc2)c1 (centres undefined) | 1 |
| COc1cc2c(cc1OC)C1C(=O)c3c(OC)cc4c(c3OC1CO2)CCC(C)(C)O4 (centres undefined) | 1.01 |
| COc1ccc2cc([C@H](C)CO)ccc2c1 | 0.975 |
| COc1cc(NC(C)CCCN)c2ncccc2c1 (centres undefined) | 1.01 |
| CCOC(=O)C1(O)Oc2cc(OC)cc(OC)c2C(=O)C1c1ccccc1 (centres undefined) | 1 |

Req: Look up normalized growth: CC(C)CC(NC(=O)C(Cc1ccccc1)NC(=O)CNC(=O)CNC(=O)C(N)Cc1ccc(O)cc1)C(=O)O (centres undefined)
Resp: 0.989

Req: Look up normalized growth: C[C@H]1CC2C([C@@H](O)C[C@@]3(C)C2CC[C@]3(O)C(=O)CO)[C@@]2(C)C=CC(=O)C=C12 (some centres undefined)
Resp: 0.996

* * *

Listed next: entries and their corresponding normalized growth.
# experiment-description: chemical genetic growth profiling, strain panel (AID 1159580);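 further: tested at 20 µM; growth read once vehicle control cultures reached saturation at 30 °C; 1 = growth at the plate median or of vehicle wells; lower values mean less growth of the strain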
# assay-conditions: S. cerevisiae deletion strains, growth OD, locus YBR160W, strain CDC28, active compounds read low
Among all 5,500 compounds or so, about 2,000 (36%) were called active. Inconclusive results (about 18%) are left out. Some of the results follow.
// return a plain number; no unit text

| compound | value-measured |
| --- | --- |
| COc1cc2c(cc1OC)C(C)N(C(=O)c1sc3ccccc3c1Cl)CC2 (stereo unspecified) | 0.968 |

Req: Look up normalized growth: O=C(Oc1ccc(C(F)(F)F)cc1[N+](=O)[O-])c1cccc(Cl)c1
Resp: 0.944

Req: Look up normalized growth: COc1ccc(NNC(=O)c2sc3ccccc3c2Cl)cc1
Resp: 0.927

Req: Look up normalized growth: O=C(CSc1nnnn1-c1ccccc1)c1ccccc1
Resp: 0.957

Req: Look up normalized growth: O=C(N/C=C/c1ccsc1)Nc1cc(C(F)(F)F)cc(C(F)(F)F)c1
Resp: 0.976

Req: Look up normalized growth: Cc1ccc(-c2csc(-c3cccnc3)n2)c(C)c1
Resp: 0.963
